These data points were gathered from paper PMC4357467.

Molecular target: Lysine-α-ketoglutarate reductase (bifunctional lysine-α-ketoglutarate reductase/saccharopine dehydrogenase) (Mus musculus)
Construct: native bifunctional enzyme, partially purified from liver (15 000 x g supernatant, Blue Trisacryl column)
Sequence (Q99K67 28-926): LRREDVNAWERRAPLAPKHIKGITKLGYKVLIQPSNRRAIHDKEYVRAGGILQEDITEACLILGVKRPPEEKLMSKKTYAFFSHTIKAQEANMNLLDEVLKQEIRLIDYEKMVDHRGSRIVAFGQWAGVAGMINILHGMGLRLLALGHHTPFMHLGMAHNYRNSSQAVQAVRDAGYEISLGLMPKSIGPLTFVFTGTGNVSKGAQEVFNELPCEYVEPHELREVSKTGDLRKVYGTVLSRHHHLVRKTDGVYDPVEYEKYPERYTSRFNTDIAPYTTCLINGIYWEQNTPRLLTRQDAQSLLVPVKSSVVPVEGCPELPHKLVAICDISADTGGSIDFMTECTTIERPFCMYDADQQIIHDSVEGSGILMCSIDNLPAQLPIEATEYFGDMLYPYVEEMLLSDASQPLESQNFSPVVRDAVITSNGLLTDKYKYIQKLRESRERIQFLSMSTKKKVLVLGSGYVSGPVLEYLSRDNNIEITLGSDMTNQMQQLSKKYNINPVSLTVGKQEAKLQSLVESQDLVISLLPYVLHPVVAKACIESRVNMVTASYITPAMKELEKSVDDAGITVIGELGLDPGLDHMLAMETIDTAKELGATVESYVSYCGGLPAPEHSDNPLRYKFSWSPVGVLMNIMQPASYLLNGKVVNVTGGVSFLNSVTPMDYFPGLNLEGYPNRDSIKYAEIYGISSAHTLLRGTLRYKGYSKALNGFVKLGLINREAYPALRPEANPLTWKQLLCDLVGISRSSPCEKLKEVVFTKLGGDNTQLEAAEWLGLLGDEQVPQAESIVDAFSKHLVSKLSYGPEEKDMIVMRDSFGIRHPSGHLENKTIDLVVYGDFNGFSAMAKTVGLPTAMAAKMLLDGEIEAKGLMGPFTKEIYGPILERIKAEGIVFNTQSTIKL
Assay: spectrophotometric enzyme assay (NADPH), partially purified native liver enzyme
readout: Ki (µM)
Your answer should be a plain number; it is taken to be in µM.

Incoming: Provide measured Ki value, entry: O=C(O)CC[C@H](O)C(=O)O [L-2-hydroxyglutarate]
Outgoing: 700
